system: wheat germ agglutinin (Triticum aestivum), Alexa647-labelled; experiment: Alexa647-WGA lectin binding to printed small molecules – biochemical, small-molecule microarray, 635/667 nm fluorescence, artefact control for SMM control-protein annotation, profiling panel (AID 1140); conditions: WGA-A647 binding, 635 nm fluorescence, higher = more signal;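 also: score merges 667 nm feature emission with signal to noise over triplicate slides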
The reader will find reported composite z-score values listed item by item below.
Write no unit; give the number alone.

Below are worked cases with known answers.
INSERT INTO assay_data (molecule, target_entity, reported) VALUES
  ('NC(=O)N1C(=O)C2C(C1=O)C1C=C(CCCO)C2C(c2ccc(CN3CCCC3)cc2)N1Cc1cc2c(cc1Br)OCO2 (stereo not given)', 'wheat germ agglutinin (Triticum aestivum), Alexa647-labelled', -0.419),
  ('CC(C)OC(=O)CC(=O)CC(O)c1cccc([N+](=O)[O-])c1 (stereo not given)', 'wheat germ agglutinin (Triticum aestivum), Alexa647-labelled', 0.265),
  ('COC(=O)C1=CC(CCCO)=CC(c2cccs2)N(Cc2cc3c(cc2Br)OCO3)C=C1C(=O)OC (stereo not given)', 'wheat germ agglutinin (Triticum aestivum), Alexa647-labelled', 1.13);

// composite z-score lookup, key: CC1CC/C=C\[C@H]2OC34C=CCN(c5ccc(Cl)cc5)C(=O)[C@H]3N(CCCCCCO)C(=O)[C@]4(C)C2C(=O)O1 (stereo not given in full) -0.988

// composite z-score lookup, key: CCCCC(=C=CC[C@H](O)c1ccc(CO)o1)CCO 0.0416

// composite z-score lookup, key: COc1ccc([Si](C)(C)[C@@H]2[C@@H](CC(=O)N3Cc4ccccc4C[C@H]3CO)O[C@]3(C(=O)N(Cc4cccc(N5CCOC5=O)c4)c4ccccc43)[C@H]2C)cc1 -0.244

// composite z-score lookup, key: COc1ccc(NN2C(C(O)c3ccc(I)cc3)C=CC3C(=O)N(C4CCCCC4)C(=O)C32)cc1 (stereo not given) 1.22

// composite z-score lookup, key: COCCCNC(=O)[C@@H]1c2ccccc2C(=O)N(Cc2ccc(OC(F)(F)F)cc2)[C@H]1c1ccc(CO)cc1 0.316

// composite z-score lookup, key: CC1CC/C=C\[C@H]2OC34C=CCN(C(C)(C)C)C(=O)[C@H]3N(CCCO)C(=O)[C@@H]4C2C(=O)O1 (stereo not given in full) -0.723

// composite z-score lookup, key: O=C(NCCN1CCOCC1)[C@@H]1c2ccccc2C(=O)N(Cc2ccc(OC(F)(F)F)cc2)[C@H]1c1ccc(CO)cc1 -0.109

// composite z-score lookup, key: CC(C)[Si](C#CCCc1ccccc1)(O[C@H](c1ccccc1)c1cn(Cc2ccccc2)nn1)C(C)C 0.782

// composite z-score lookup, key: CO[C@H]1O[C@H](CO)[C@@H](OC(=O)Nc2ccccc2)[C@H](OC(=O)Nc2ccccc2)[C@H]1OC(=O)Nc1ccccc1 0.791

// composite z-score lookup, key: COc1ccc(C(=O)Nc2ccc(CN3C(=O)[C@@]4(O[C@@H](CCn5cc(CCO)nn5)[C@H]([Si](C)(C)c5ccc(OC)cc5)[C@H]4C)c4ccccc43)cc2)cc1 0.522

// composite z-score lookup, key: CC(C)=CCCC=C(C)C(O)C1C=CC2C(=O)N(c3ccccc3)C(=O)C2N1Nc1ccc(C#N)cc1 (stereo not given) 1.06

// composite z-score lookup, key: CO[C@H]1O[C@H](CO)[C@@H](OC(=O)Nc2ccc3c(c2)OCO3)[C@H](OC(=O)Nc2ccccc2-c2ccccc2)[C@H]1OC(=O)Nc1ccccc1-c1ccccc1 0.331
